- tested_system: T1, soluble fusion protein comprising a DEC-205 extracellular domain (comprising all ten lectin-binding domains) … (human, UniProt O60449 28-1666)
- T1 construct: not shown: antibody Fc domain
- T1 sequence (O60449 28-1666 K1321N/Y1391H): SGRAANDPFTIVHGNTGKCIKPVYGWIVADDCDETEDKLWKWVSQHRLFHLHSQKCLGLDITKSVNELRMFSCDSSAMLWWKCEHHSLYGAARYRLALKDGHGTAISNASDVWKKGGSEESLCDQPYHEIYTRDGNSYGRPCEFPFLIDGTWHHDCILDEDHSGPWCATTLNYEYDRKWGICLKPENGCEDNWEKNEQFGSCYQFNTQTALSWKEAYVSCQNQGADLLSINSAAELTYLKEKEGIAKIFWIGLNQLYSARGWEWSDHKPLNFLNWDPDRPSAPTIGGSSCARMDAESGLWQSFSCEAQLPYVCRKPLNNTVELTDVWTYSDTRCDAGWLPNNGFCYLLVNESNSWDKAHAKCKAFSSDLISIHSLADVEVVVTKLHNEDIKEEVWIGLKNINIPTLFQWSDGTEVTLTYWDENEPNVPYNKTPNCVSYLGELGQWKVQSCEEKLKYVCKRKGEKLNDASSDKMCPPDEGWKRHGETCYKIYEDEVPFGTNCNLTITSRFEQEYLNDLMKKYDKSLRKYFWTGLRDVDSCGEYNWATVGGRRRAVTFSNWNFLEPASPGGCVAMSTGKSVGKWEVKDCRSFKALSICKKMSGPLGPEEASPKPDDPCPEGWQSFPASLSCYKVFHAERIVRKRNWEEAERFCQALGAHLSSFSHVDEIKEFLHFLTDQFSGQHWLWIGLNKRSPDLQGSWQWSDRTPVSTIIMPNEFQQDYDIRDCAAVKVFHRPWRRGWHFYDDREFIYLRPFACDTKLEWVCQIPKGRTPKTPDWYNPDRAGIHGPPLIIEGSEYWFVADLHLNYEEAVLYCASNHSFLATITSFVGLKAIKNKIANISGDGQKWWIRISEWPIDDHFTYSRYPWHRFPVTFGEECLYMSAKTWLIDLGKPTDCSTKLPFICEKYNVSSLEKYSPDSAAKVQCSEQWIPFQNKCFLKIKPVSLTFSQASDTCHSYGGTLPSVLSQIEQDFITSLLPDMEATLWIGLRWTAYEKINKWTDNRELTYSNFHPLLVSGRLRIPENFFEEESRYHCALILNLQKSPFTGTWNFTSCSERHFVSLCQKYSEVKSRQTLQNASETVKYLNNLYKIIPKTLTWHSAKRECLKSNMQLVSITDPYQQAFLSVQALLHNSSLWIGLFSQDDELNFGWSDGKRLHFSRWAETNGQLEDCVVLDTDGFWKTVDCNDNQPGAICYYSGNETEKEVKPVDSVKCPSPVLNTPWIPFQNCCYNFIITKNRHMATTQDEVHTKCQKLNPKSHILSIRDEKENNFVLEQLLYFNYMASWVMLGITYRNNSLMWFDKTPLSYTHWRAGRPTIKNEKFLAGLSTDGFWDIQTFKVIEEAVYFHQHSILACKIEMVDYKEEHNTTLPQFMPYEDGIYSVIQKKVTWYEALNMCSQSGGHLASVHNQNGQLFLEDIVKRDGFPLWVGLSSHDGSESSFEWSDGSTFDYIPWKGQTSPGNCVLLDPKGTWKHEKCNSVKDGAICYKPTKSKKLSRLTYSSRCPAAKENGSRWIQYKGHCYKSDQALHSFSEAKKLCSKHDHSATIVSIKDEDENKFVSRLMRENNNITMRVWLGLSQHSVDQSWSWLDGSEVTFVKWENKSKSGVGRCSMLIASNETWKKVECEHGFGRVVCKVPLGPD
- measurement_notes: SPR (Biacore 2000), DEC-205 fusion protein amine-coupled to CM5 chip, antibody flowed at 1.25-200 nM, 1:1 Langmuir fit, mean of two series
# Kd per entry
measured_attribute: Kd

* 3G9-2D2 (antibody, V domains shown, Human IgG (kappa) from a hybridoma, protein A purified; also called mAb #8; HuMab 3G9-2D2) VH: QVQLVESGGGVVQPGRSLRLSCAASGFTFSNYGMYWVRQAPGKGLEWVAVIWYDGSNKYYADSVKGRFTISRDNSKNTLYLQMNSLRAEDTAVYYCARDLWGWYFDYWGQGTLVTVSS VL: EIVLTQSPATLSLSPGERATLSCRASQSVSSYLAWYQQKPGQAPRLLIYDASNRATGIPARFSGSGSGTDFTLTISSLEPEDFAVYYCQQRRNWPLTFGGGTKVEIK | 240 pM
* 3D6-2F4 (antibody, V domains shown, Human IgG (kappa) from a hybridoma, protein A purified; also called mAb #5; HuMab 3D6-2F4) VH: QVQLVESGGGVVQPGRSLRLSCAASGFIFSIYGMHWVRQAPGKGLEWVAVIWYDGSNKYYADSVKGRFTISRDNSKNTLYLQMNSLRAEDTAVYYCARAPHFDYWGQGTLVTVSS VL: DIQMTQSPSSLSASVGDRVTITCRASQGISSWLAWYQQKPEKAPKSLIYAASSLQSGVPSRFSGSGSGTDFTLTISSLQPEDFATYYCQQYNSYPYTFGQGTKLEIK | 80 pM
* 3C7-3A3 (antibody, V domains shown, Human IgG (kappa) from a hybridoma, protein A purified; also called mAb #3; HuMab 3C7-3A3) VH: QVQLVESGGGVVQPGRSLRLSCAASGFTFSSYNMHWVRQAPGKGLEWVAFIWYDGSNKYYGDSVKGRFTISRDNSKNTLYLQMNSLRAEDTAVYYCAREELGIGWYFDLWGRGTLVTVSS VL: EIVLTQSPATLSLSPGERATLSCRASQSVSSYLAWYQQKPGQAPRLLIYDASNRATGIPARFSGSGSGTDFTLTISSLEPEDFAVYYCQQRRTFGQGTKVEIK | 5600 pM
* 5A8-1F1 (antibody, V domains shown, Human IgG (kappa) from a hybridoma, protein A purified; also called mAb #2; HuMab 5A8-1F1) VH: QVQLVESGGGVVQPGRSLRLSCAASGFTFSTYGMHWVRQAPGKGLEWVAIIWYDGGNKYYADSVKGRFTISRDNSKNTLYLQMNSLRAEDTAVYYCARDFYWYFDLWGRGTLVTVSS VL: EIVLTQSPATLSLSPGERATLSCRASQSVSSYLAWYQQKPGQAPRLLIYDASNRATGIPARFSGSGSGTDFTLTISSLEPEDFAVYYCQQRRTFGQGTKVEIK | 1500 pM
